Just for reference, the supplement of paper PMC10567573 is where these values come from.

B1: TPRG1 (parent)
chain: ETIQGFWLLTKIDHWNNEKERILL

Variants of: B1
Experiment: protein stability index of a GFP-peptide fusion (GPS, HEK-293T) (PSI 1-6); higher = more stable;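 note: lentivirally expressed fusions sorted by FACS into six bins by GFP to DsRed ratio, PSI derived from sequencing read proportions per bin multiplied by bin number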
Conditions: c terminus: a fixed tail appended
readout.kind: protein stability index
Give the figure only, with no unit attached.

L9M: 2.1

Now turn to the next variant.
Find the recorded protein stability index belonging to N17M and report it.
3.42
